Where these numbers come from: patent US9458128B2

Molecular target: recombinant human soluble COMT (S-COMT) (Homo sapiens)
Assay: COMT inhibiting activity in vitro, Assay 1 (fluorescence plate reader)
Format: biochemical
Settings: Assay 1: 12 nM S-COMT, 60 min preincubation at 37° C., substrate esculetin, Morrison equation
Protocol: The inhibitory potency was determined by measuring recombinant human soluble COMT (S-COMT) activity at various compound concentrations. […] [formula] wherein v0 and vi are the reaction velocities in the absence and presence, respectively, of the inhibitor, E is the active enzyme concentration, and I is the inhibitor concentration. The data were analyzed with GraphPad Prism version 4.00 software (GraphPad Software, San Diego, Calif., USA). […]
measured_property: Ki (nM)

Would you please look over these solved cases?
compound=N#Cc1cc(O)c(O)c(C#N)c1-c1ccc(Cl)c(Cl)c1 target_system="recombinant human soluble COMT (S-COMT) (Homo sapiens)" measured_property=Ki number=9.5
compound="N#Cc1cc(O)c(O)c(C#N)c1Cc1ccccc1 [Example 45, 2-Benzyl-4,5-dihydroxyisophthalonitrile]" target_system="recombinant human soluble COMT (S-COMT) (Homo sapiens)" measured_property=Ki number=8.2
compound="C=Cc1c(C#N)cc(O)c(O)c1C#N [Example 89, 4,5-Dihydroxy-2-vinylisophthalonitrile]" target_system="recombinant human soluble COMT (S-COMT) (Homo sapiens)" measured_property=Ki number=2

A. N#Cc1cc(O)c(O)c(C#N)c1N1CCOCC1
B. N#Cc1cc(O)c(O)c(C#N)c1-c1ccc(CCC(=O)O)cc1
C. N#Cc1cc(O)c(O)c(C#N)c1-c1cccs1
In: Exam item: list the entries in increasing order of Ki. List the labels in the requested order.
Out: C, B, A

P. N#Cc1cc(O)c(O)c(C#N)c1/C=C/C(=O)O
Q. N#Cc1cc(O)c(O)c(C#N)c1C1=CCOCC1
R. Cc1ccc(/C=C/c2c(C#N)cc(O)c(O)c2C#N)cc1
S. CCN(CC)C(=O)c1cccc(-c2c(C#N)cc(O)c(O)c2C#N)c1
In: Exam item: list the entries in increasing order of Ki. List the labels in the requested order.
Out: Q, P, S, R

----------
Target: recombinant human soluble COMT (S-COMT) (Homo sapiens, UniProt P21964)
Sequence (P21964 1-221 isoform P21964-2): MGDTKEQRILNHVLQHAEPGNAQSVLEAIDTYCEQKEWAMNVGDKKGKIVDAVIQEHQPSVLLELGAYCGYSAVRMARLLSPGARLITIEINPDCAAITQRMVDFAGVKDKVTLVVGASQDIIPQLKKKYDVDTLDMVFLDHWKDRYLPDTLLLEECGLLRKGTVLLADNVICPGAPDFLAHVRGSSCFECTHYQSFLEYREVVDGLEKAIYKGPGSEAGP
Assay: COMT inhibiting activity in vitro, Assay 1 (fluorescence plate reader)
Format: biochemical
Details: Assay 1: 12 nM S-COMT, 60 min preincubation at 37° C., substrate esculetin, Morrison equation
measured_property: Ki (nM)

a. CC(C)S(=O)(=O)c1ccc(-c2c(C#N)cc(O)c(O)c2C#N)cc1 [Example 23]
b. N#Cc1cc(O)c(O)c(C#N)c1-c1cccc(C(=O)O)c1 [Example 26]
c. N#Cc1cc(O)c(O)c(C#N)c1-c1ccc2cc(O)ccc2c1 [Example 122]
d. N#Cc1cc(O)c(O)c(C#N)c1CCCO [Example 187]
In: Write the entries in order, lowest recorded Ki first. List the labels in the requested order.
Out: b, a, c, d
(b: 0.12 nM, a: 0.19 nM, c: 1.5 nM, d: 3.2 nM)
